# MFI annotations
Measured Target: mouse DLL3 on CHO-K1-mDLL3 cells (mouse) (UniProt O88516)
Sequence (O88516 other isoform, or with tags, fused parts or gaps limits assumed): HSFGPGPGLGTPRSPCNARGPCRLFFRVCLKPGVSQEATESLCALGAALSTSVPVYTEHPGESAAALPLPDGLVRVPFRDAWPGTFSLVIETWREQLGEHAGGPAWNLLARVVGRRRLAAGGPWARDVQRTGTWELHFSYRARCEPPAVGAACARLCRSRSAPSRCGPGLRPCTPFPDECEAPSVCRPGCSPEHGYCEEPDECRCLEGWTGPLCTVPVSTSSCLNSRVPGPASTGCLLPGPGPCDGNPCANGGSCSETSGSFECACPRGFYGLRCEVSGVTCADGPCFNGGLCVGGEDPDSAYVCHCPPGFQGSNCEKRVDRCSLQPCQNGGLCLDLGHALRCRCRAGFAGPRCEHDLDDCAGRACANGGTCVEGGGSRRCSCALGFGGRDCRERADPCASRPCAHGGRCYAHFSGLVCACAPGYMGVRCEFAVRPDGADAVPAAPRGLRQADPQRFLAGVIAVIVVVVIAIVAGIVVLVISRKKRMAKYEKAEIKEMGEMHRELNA
Test Method Notes: FACS, CHO-K1-mDLL3 cells, 100 nM antibody
Numbers only; they are read as MFI.

Hab015VL4VH1b-hFc (scFv, part only; not given: VL-VH linker and human IgG1 Fc, V domains shown, not shown: another chain or arm of the molecule; a dimerising Fc or GST; small tags and cut ends) VL: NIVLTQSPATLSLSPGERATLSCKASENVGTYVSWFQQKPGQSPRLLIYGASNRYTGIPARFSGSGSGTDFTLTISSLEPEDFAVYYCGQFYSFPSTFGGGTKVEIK VH: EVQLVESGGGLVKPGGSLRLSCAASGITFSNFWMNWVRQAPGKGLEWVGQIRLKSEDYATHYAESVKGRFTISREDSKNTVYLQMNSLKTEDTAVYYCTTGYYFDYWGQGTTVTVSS
1490
Hab013VL2VH2a-hFc (scFv, part only; not given: scFv linker and human IgG1 Fc, V domains shown, not shown: another chain or arm of the molecule; a dimerising Fc or GST; small tags and cut ends) VL: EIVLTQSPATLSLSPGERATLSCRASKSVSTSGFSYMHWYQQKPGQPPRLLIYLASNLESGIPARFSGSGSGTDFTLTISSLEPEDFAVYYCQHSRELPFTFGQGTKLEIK VH: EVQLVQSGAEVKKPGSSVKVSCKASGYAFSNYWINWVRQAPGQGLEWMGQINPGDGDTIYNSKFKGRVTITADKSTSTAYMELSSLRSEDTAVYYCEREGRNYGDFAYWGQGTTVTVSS
764
Hab009VL2aVH1-hFc (scFv, part only; not given: VL-VH linker and human IgG1 Fc, V domains shown, not shown: another chain or arm of the molecule; a dimerising Fc or GST; small tags and cut ends) VL: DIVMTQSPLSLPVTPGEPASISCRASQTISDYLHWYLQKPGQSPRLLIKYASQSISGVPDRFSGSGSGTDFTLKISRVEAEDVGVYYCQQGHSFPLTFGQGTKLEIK VH: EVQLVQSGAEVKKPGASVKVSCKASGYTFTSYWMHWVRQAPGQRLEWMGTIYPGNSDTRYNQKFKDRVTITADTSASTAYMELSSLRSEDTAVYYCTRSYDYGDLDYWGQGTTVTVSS
438
Hab015VL5VH5a-hFc (scFv, part only; not given: scFv linker and human IgG1 Fc, V domains shown, not shown: another chain or arm of the molecule; a dimerising Fc or GST; small tags and cut ends) VL: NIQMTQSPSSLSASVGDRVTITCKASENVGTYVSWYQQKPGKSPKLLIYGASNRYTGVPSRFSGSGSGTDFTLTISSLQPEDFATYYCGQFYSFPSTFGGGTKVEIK VH: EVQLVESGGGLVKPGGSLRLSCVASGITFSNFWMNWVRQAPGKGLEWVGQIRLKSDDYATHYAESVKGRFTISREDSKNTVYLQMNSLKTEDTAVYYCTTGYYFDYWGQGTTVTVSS
1580

What the record says about Hab009VL1aVH1-hFc (scFv, part only; not given: scFv linker and human IgG1 Fc, V domains shown, not shown: another chain or arm of the molecule; a dimerising Fc or GST; small tags and cut ends) VL: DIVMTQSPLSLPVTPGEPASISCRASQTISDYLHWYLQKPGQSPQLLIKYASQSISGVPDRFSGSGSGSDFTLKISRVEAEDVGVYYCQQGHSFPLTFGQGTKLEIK VH: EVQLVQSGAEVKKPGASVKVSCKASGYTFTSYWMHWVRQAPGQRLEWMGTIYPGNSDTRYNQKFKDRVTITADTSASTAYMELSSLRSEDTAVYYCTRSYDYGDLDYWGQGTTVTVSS : MFI is 400
